Assay read-out Ki on 5-hydroxytryptamine receptor 1D (Homo sapiens, UniProt P28221); records merged from the literature.
Sequence (P28221 whole entry): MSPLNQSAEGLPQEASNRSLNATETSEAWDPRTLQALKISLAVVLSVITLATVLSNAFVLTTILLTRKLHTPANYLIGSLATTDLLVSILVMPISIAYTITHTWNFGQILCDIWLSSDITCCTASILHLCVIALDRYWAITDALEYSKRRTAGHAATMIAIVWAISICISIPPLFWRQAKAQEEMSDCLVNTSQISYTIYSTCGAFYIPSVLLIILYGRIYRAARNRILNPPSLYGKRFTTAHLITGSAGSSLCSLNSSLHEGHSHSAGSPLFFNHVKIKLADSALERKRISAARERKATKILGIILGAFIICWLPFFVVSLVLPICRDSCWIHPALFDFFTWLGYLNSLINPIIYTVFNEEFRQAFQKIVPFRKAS
assay-metric: Ki (nM)

Solved cases below.
1) Cc1ccc2c(OCCN3CCC(Cc4ccc5c(c4)NC(=O)CO5)CC3)cccc2n1 1.58
2) COc1ccc(NC(=O)N2CC=C(c3ccc4[nH]cc(C[C@H]5CCCN5C)c4c3)CC2)cc1 0.42

1 = CC1(C)Cc2cccc(N3CCN(CCc4ccc5c(c4)NC(=O)CO5)CC3)c2O1
2 = COc1ccc(CCN2CCC(C(=O)c3cccc(OCCF)c3OC)CC2)cc1
Please let me know which one, 1 or 2 , has a lower measured Ki value. Lab log: write the label of the selected item as the result.
1

* * *

Assay read-out Ki on UniProt:P28221; records merged from the literature.
assay-metric: Ki (nM)

compound	Ki / nM
CS(=O)(=O)Oc1ccc2c(c1)CN(CC[C@H]1CC[C@H](NC(=O)/C=C/c3ccc(F)cc3)CC1)C2	1260

a = Cc1ccc(CC2=NCCN2)c(C)c1OCc1ccccc1
b = COc1ccc(C2NCCc3c2[nH]c2ccc(Cl)cc32)c(O)c1 (stereo unspecified)
Please let me know which one, a or b , has a lower measured Ki value. Lab log: write the label of the selected item as the result.
b

1 = CNCCOc1ccc(Cl)cc1Cl
2 = COc1ccccc1N1CCN(CCN(C(=O)C23CCC(CF)(CC2)C3)c2ccccn2)CC1
Hi there! Just curious which has the higher Ki between 1 and 2 . Lab log: write the label of the selected item as the result.
1

P = Cc1ccc2c(OCCN3CCC(Cc4cccc(-c5ccccc5)c4)CC3)cccc2n1
Q = CN1CCC(c2c[nH]c3ccc(NC(=O)c4ccncc4)nc23)CC1
R = COc1cc2c(cc1N1CCN(C)CC1)N(C(=O)Cc1cccc([N+](=O)[O-])c1)CC2
Form: Sort by [Ki] Order [ ascending ] Lab note: final answer is the ordered label list.
P, R, Q
(P: 7.94 nM, R: 31.6 nM, Q: 420 nM)

* * *

Assay read-out Ki on UniProtKB P28221; records merged from the literature.
assay-metric: Ki (nM)

compound	unit-text	Ki
Cc1ccc2c(OC3CCN(Cc4ccc5c(c4)NC(=O)CO5)CC3)cccc2n1	nM	1260
CN1CCN(c2nccc3cc4c(cc23)N(C(=O)c2ccc(C#N)cc2)CC4)CC1	nM	0.794

P = CN(C)CCn1ccc2ccc(C3(O)CCOCC3)cc21
Q = O=C(NC12CC3CC(CC(C3)C1)C2)N1CC=C(c2ccc3[nH]cc(CCN4CCCC4)c3c2)CC1
R = CCNC(=O)Nc1cccc(CC2CCN(CCOc3cccc4nc(C)ccc34)CC2)c1
S = Cc1ccc2c(OCCN3CCC(Cc4cc5c(cc4F)OCC(=O)N5)CC3)cc(Cl)cc2n1
Put the items in sequence by Ki, from largest down. Lab note: final answer is the ordered label list.
S, Q, P, R

I = Cc1ccc2c(OCCN3CCC(Cc4cc5c(cc4F)OCC(=O)N5)CC3)cccc2n1
II = CCc1c(C(=O)N2CCc3cc4ccnc(N5CCN(C(C)C)CC5)c4cc32)cnn1-c1ccc(C#N)cc1
Hi there! Just curious which has the higher Ki between I and II . Lab log: write the label of the selected item as the result.
II

P = CCc1c(C(=O)N2CCc3cc4ccnc(N5CCN(CC)CC5)c4cc32)cnn1-c1ccc(C#N)cc1
Q = Cc1cc(N2CCN(CCc3ccc4c(c3)NC(=O)CO4)CC2)c2ccc(C)nc2c1
R = COc1c(OCCF)cccc1C(=O)C1CCN(CCc2ccc([N+](=O)[O-])cc2)CC1
Put the items in sequence by Ki, from largest down. Lab note: final answer is the ordered label list.
R, P, Q

* * *

pKi: −log10 of the molar value.
Assay read-out pKi on 5-hydroxytryptamine receptor 1D (Homo sapiens); records merged from the literature.

1. Fc1ccc(-c2noc3c2CCNCC3)cc1 < 5.00
2. CN1CCN(c2ccc3[nH]nc(S(=O)(=O)c4cccc5ccccc45)c3c2)CC1 < 5.30
3. Nc1ccc(S(=O)(=O)c2cc(Br)nc(N3CCCC3)c2)cc1 < 4.00

# query: pKi of entry C[C@@H]1OC(=O)N(C(=O)NCCCN2CCC(c3ccc(F)cc3)CC2)[C@H]1c1ccc(F)c(F)c1
< 6.30

Ok, now O=C(Nc1ccc2cnn(S(=O)(=O)c3cccc4ccccc34)c2c1)C1CCNCC1
< 5.70

* * *

Assay read-out Ki on 5-hydroxytryptamine receptor 1D (Homo sapiens, UniProt P28221); records merged from the literature.
assay-metric: Ki (nM)

Solved cases below.
1. CC(=O)Nc1cccc(CC2CCN(CCOc3cccc4nc(C)ccc34)CC2)c1 0.501
2. CNCc1ccc(Cl)c(-c2ccccc2OC)c1 1200

1 = COc1cc2c(cc1N1C[C@@H](C)N[C@@H](C)C1)N(C(=O)c1ccc(-c3ccc(-c4ncccn4)cc3C)cc1)CC2
2 = Fc1ccc(-c2n[nH]c3c2CCNCC3)cc1
3 = COc1cc2c(cc1OCCN(C)C)N(C(=O)c1ccc(-c3ccc(-c4noc(C)n4)cc3C)cc1)CC2
Put the items in sequence by Ki, from largest down. Lab note: final answer is the ordered label list.
2, 1, 3

a = N#Cc1ccc2c(c1)CCN(CC[C@H]1CC[C@H](NC(=O)/C=C/c3ccccc3)CC1)C2
b = CN1CCC[C@@H]1Cc1c[nH]c2ccc(C3=CCN(C(=O)Nc4cccc5ccccc45)CC3)cc12
Please let me know which one, a or b , has a lower measured Ki value. Lab log: write the label of the selected item as the result.
b
(b: 0.45 nM, a: 316 nM)

1 = Cc1cc(C(=O)Nc2ccc(C)c(N3CCN(C)CC3)c2)ccc1Br
2 = CN1CCC(N2CCOc3ccc(NC(=O)c4ccc(F)cc4)cc32)CC1
3 = CN1CCC(c2c[nH]c3ccc(NC(=O)c4ccc(F)cc4)cc23)CC1
Form: Sort by [Ki] Order [ ascending ] Lab note: final answer is the ordered label list.
1, 3, 2

* * *

Assay read-out Ki on 5-hydroxytryptamine receptor 1D (Homo sapiens); records merged from the literature.

Solved cases below.
compound	tested-target	meas-value
O=S(=O)(c1cccc2ccccc12)c1n[nH]c2ccc(N3CCNCC3)cc12	5-hydroxytryptamine receptor 1D (Homo sapiens)	> 5 µM
NCCC(=O)Nc1cccc2c1cnn2S(=O)(=O)c1cccc2ccccc12	5-hydroxytryptamine receptor 1D (Homo sapiens)	> 2 µM
COc1ccc(CCN2CCC(C(O)c3cccc(OCCF)c3OC)CC2)cc1 (configuration not stated)	5-hydroxytryptamine receptor 1D (Homo sapiens)	> 10 µM
CCCCCCCCN1CCC(c2c[nH]c3ccc(NC(=O)c4ccc(F)cc4)cc23)CC1	5-hydroxytryptamine receptor 1D (Homo sapiens)	> 1 µM
Nc1nc(Br)ncc1-c1c[nH]c2cccc(O)c12	5-hydroxytryptamine receptor 1D (Homo sapiens)	> 10 µM

# query: Ki of entry Nc1nccc(-c2c[nH]c3cccc(O)c23)n1
> 10 µM

Ok, now O=C(Nc1ccc2[nH]cc(C3CCN(CCO)CC3)c2c1)c1ccc(F)cc1
> 1 µM

* * *

pKi: −log10 of the molar value.
Assay read-out pKi on 5-hydroxytryptamine receptor 1D (Homo sapiens, UniProt P28221); records merged from the literature.
assay-metric: pKi

Solved cases below.
molecule	tested-target	pKi
Cc1ccc2c(N3CCN(CCc4ccc5c(c4)NC(=O)CO5)CC3)ccc(Cl)c2n1	5-hydroxytryptamine receptor 1D (Homo sapiens, UniProt P28221)	9.70
COc1cc2c(cc1N1C[C@@H](C)N(C)[C@@H](C)C1)N(C(=O)Nc1cccc(C(F)(F)F)c1F)CC2	5-hydroxytryptamine receptor 1D (Homo sapiens, UniProt P28221)	6.80
CCCCNCc1ccc(Cl)c(-c2ccccc2OC)c1	5-hydroxytryptamine receptor 1D (Homo sapiens, UniProt P28221)	5.70
CN(C)CCn1ccc2ccc(C3CCSCC3)cc21	5-hydroxytryptamine receptor 1D (Homo sapiens, UniProt P28221)	8.25
Cc1nc(C)c(C(=O)N2CCc3cc4ccnc(N5CCN(C)CC5)c4cc32)o1	5-hydroxytryptamine receptor 1D (Homo sapiens, UniProt P28221)	8.60
Cc1ccc2c(OCCN3CCC(Cc4cccc(N(C)S(C)(=O)=O)c4)CC3)cccc2n1	5-hydroxytryptamine receptor 1D (Homo sapiens, UniProt P28221)	8.80
Cc1ccc2c(OCCN3CCC(Cc4cccc(C5CCN(C)CC5)c4)CC3)cccc2n1	5-hydroxytryptamine receptor 1D (Homo sapiens, UniProt P28221)	9.70
NC(=O)c1ccc2c(c1)CCO[C@H]2CCN1CCN(c2ccc3cc(F)ccc3c2)CC1	5-hydroxytryptamine receptor 1D (Homo sapiens, UniProt P28221)	8.00

a = Cc1ccc2c(OCCN3CCC(Cc4cc(F)c5c(c4)NC(=O)CO5)CC3)cc(Cl)cc2n1
b = CCCN(Cc1ccccc1)C1CCc2ccc3[nH]cc(C=O)c3c2C1 (centres undefined)
c = COc1cc2c(cc1N1C[C@@H](C)N(C)[C@@H](C)C1)N(C(=O)c1ccc(-c3ccccc3C)cc1)CC2
Form: Sort by [pKi] Order [ ascending ] Lab note: final answer is the ordered label list.
a, b, c
